Origin of the recorded values: the supplement of paper PMC4932681

System: T-47D Tam2
Assay: viability inhibition at highest dose (% inhibition); higher = more growth inhibition
Conditions: 4-OH-tamoxifen in medium 1 µM; 72 h
Kindly supply the reported viability inhibition at highest dose values for the records listed here.
Please give only the number in your answer, with no unit.

Exam item: Please look at Oc1ccc2c(c1)CC[C@H](c1ccccc1)[C@@H]2c1ccc(OCCN2CCCC2)cc1 [Lasofoxifene] (drug 1000 nM) and tell me its recorded viability inhibition at highest dose on T-47D Tam2.
Marked response: 5.06

Exam item: Please look at N.N.[Cl][Pt][Cl] [Cisplatin] (drug 10000 nM) and tell me its recorded viability inhibition at highest dose on T-47D Tam2.
Marked response: 8.3

Exam item: Please look at CC[C@@H]1C(=O)N(C)c2cnc(Nc3ccc(C(=O)NC4CCN(C)CC4)cc3OC)nc2N1C1CCCC1 [BI 2536] (drug 1000 nM) and tell me its recorded viability inhibition at highest dose on T-47D Tam2.
Marked response: 34

Exam item: Please look at C[C@@H](Oc1cc(-c2cnn(C3CCNCC3)c2)cnc1N)c1c(Cl)ccc(F)c1Cl [Crizotinib] (drug 1000 nM) and tell me its recorded viability inhibition at highest dose on T-47D Tam2.
Marked response: 2.79

Exam item: Please look at C[C@@H]1C=C2C(=O)O[C@@H]3CC[C@H](C1)[C@]23O [Galiellalactone] (drug 50000 nM) and tell me its recorded viability inhibition at highest dose on T-47D Tam2.
Marked response: 40.6

Exam item: Please look at C[C@H]1C[C@@H]2[C@H]([C@@H](O)C[C@@]3(C)[C@H]2CC[C@]3(O)C(=O)CO)[C@@]2(C)C=CC(=O)C=C12 [Methylprednisolone] (drug 10000 nM) and tell me its recorded viability inhibition at highest dose on T-47D Tam2.
Marked response: 8.67

Exam item: Please look at CN1CCC(COc2cnc(-c3cccc(Cn4nc(-c5cccc(C#N)c5)ccc4=O)c3)nc2)CC1 (drug 1000 nM) and tell me its recorded viability inhibition at highest dose on T-47D Tam2.
Marked response: -1.11
